System: Klebsiella pneumoniae
Assay Notes: Antibacterial activity against wild type Klebsiella pneumoniae ATCC 13883 assessed as reduction in microbial growth incubated for 20 to 22 hrs by CLSI based analysis
Format: functional
Reported Conditions: time 20-22 hrs
Measurement Label: MIC (µg/mL)
// return numeric value only (unit: µg/mL, not printed)

• CO[C@@H](CNC(=O)[C@H](NC(=O)[C@H](O)[C@H](C)O)[C@H](O)c1cncn1C)[C@H](O)[C@H](O)C(=O)N(C)[C@@H](Cc1ccccc1)C(=O)NCC(=O)N[C@H](C(=O)N[C@@H](CO)C(=O)N[C@H](C(=O)N[C@H](C(=O)N[C@@H](CCC(=O)NCc1cc(=O)c(O)cn1O)C(=O)O)C(C)(C)C)C(C)(C)O)C(C)(C)O = 0.25

(Q) For CO[C@@H](CNC(=O)[C@H](NC(=O)[C@H](O)[C@H](C)O)[C@H](O)c1cncn1C)[C@H](O)[C@H](O)C(=O)N(C)[C@@H](Cc1ccccc1)C(=O)NCC(=O)N[C@H](C(=O)N[C@@H](CO)C(=O)N[C@H](C(=O)N[C@H](C(=O)N[C@@H](CO)C(=O)N[C@@H](CCC(=O)NCc1cc(=O)c(O)cn1O)C(=O)O)C(C)(C)C)C(C)(C)O)C(C)(C)O , write its MIC.
(A) 0.06

----------
Recorded MIC for the following compounds
Test system: Klebsiella pneumoniae
Assay Notes: Antibacterial activity against wild type Klebsiella pneumoniae ATCC 13883 assessed as reduction in microbial growth incubated for 20 to 22 hrs by CLSI based analysis
Format: functional
Reported Conditions: time 20-22 hrs
Express it in mg/L; write the number only.

Examples from the recorded data:
* CO[C@@H](CNC(=O)[C@H](NC(=O)[C@H](O)[C@H](C)O)[C@H](O)c1cncn1C)[C@H](O)[C@H](O)C(=O)N(C)[C@@H](Cc1ccc(F)cc1)C(=O)NCC(=O)N[C@H](C(=O)N[C@@H](CO)C(=O)N[C@H](C(=O)N[C@H](C(=O)N[C@@H](CO)C(=O)NCc1cc(=O)c(O)cn1O)C(C)(C)C)C(C)(C)O)C(C)(C)O | 0.125
* CO[C@@H](CNC(=O)[C@H](NC(=O)[C@H](O)[C@H](C)O)[C@H](O)c1cncn1C)[C@H](O)[C@H](O)C(=O)N(C)[C@@H](Cc1ccc(F)cc1)C(=O)NCC(=O)N[C@H](C(=O)N[C@@H](CO)C(=O)N[C@H](C(=O)N[C@H](C(=O)N[C@@H](CCC(=O)NCc1cc(=O)c(O)cn1O)C(=O)NCCN)C(C)(C)C)C(C)(C)O)C(C)(C)O | 0.12
* CO[C@@H](CNC(=O)[C@H](NC(=O)[C@H](O)[C@H](C)O)[C@H](O)c1cncn1C)[C@H](O)[C@H](O)C(=O)N(C)[C@@H](Cc1ccccc1)C(=O)NCC(=O)N[C@H](C(=O)N[C@@H](CO)C(=O)N[C@H](C(=O)N[C@H](C(=O)N[C@@H](CC(=O)O)C(=O)N1CCC[C@H]1C(=O)NCc1cc(=O)c(O)cn1O)C(C)(C)C)C(C)(C)O)C(C)(C)O | 0.03

(Q) Name the recorded MIC of the compound listed here: CC[C@H](C)[C@H](NC(=O)[C@@H](NC(=O)[C@H](CO)NC(=O)[C@@H](NC(=O)CNC(=O)[C@H](Cc1ccccc1)N(C)C(=O)[C@@H](O)[C@@H](O)[C@H](CNC(=O)[C@H](NC(=O)[C@H](O)[C@H](C)O)[C@H](O)c1cncn1C)OC)C(C)(C)O)C(C)(C)O)C(=O)N[C@@H](CO)C(=O)N[C@@H](CCC(=O)NCc1cc(=O)c(O)cn1O)C(=O)O
(A) 0.12

(Q) Please report MIC for the following compound: CO[C@@H](CNC(=O)[C@H](NC(=O)[C@H](O)[C@H](C)O)[C@H](O)c1cncn1C)[C@H](O)[C@H](O)C(=O)N(C)[C@@H](Cc1ccc(F)cc1)C(=O)NCC(=O)N[C@H](C(=O)N[C@@H](CO)C(=O)N[C@H](C(=O)N[C@H](C(=O)N[C@@H](CO)C(=O)NCc1ccc(O)c(O)c1)C(C)(C)C)C(C)(C)O)C(C)(C)O
(A) 0.25

(Q) Given CO[C@@H](CNC(=O)[C@H](NC(=O)[C@H](O)[C@H](C)O)[C@H](O)c1cncn1C)[C@H](O)[C@H](O)C(=O)N(C)[C@@H](Cc1ccccc1)C(=O)NCC(=O)N[C@H](C(=O)N[C@@H](CO)C(=O)N[C@H](C(=O)N[C@@H](CC(C)C)C(=O)N[C@@H](CO)C(=O)N[C@@H](CCC(=O)NCc1cc(=O)c(O)cn1O)C(=O)O)C(C)(C)O)C(C)(C)O , respond with its MIC.
(A) 0.25

// provenance: ChEMBL document CHEMBL5356971
